Biological target: T1, schistosome legumain SmAE (Schistosoma mansoni asparaginyl endopeptidase) (Schistosoma mansoni), P09841
T1 chain: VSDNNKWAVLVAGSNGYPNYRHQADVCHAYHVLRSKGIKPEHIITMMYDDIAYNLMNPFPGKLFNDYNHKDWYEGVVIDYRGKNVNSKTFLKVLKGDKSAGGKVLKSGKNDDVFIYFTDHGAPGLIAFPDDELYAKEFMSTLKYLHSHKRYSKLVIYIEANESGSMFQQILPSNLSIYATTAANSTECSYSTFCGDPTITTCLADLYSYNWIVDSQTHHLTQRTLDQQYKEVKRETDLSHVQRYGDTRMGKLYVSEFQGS
Test: cell-based or functional assay
Recorded IC50 for the following binders
# output: bare number, implied unit nM

Example cases with answers are listed next.
{"binder": "AAN (modifications not checked) [Cbz-Ala-Ala-AAsn-CH═CH-CO-Pip]", "IC50, nM": 1000}
{"binder": "AAN (modifications not checked) [Cbz-Ala-Ala-AAsn-CH═CH-CO-MePhe-N(CH3)CH2CH2Ph]", "IC50, nM": 750}
{"binder": "AAN (modifications not checked) [Cbz-Ala-Ala-AAsn-CH═CH-CON(Bzl-4-OMe)Bzl]", "IC50, nM": 90}

# context switch: different binder, same IC50
Exam item: Look up IC50 for this binder: AAN (modifications not checked) [Cbz-Ala-Ala-AAsn-CH═CH-CON(CH2-2-furyl)2]
Marked response: 900

Reference source for all entries: patent US20050256058A1
